Measured inhibition at 0.1 µM by item
Target: AR protein (Homo sapiens, UniProt P10275, T878A)
Construct: degradation activity of the compounds disclosed in the present disclosure on AR protein in LNCaP cells; host or cells: LNCaP FGC
Sequence (P10275 whole entry T878A): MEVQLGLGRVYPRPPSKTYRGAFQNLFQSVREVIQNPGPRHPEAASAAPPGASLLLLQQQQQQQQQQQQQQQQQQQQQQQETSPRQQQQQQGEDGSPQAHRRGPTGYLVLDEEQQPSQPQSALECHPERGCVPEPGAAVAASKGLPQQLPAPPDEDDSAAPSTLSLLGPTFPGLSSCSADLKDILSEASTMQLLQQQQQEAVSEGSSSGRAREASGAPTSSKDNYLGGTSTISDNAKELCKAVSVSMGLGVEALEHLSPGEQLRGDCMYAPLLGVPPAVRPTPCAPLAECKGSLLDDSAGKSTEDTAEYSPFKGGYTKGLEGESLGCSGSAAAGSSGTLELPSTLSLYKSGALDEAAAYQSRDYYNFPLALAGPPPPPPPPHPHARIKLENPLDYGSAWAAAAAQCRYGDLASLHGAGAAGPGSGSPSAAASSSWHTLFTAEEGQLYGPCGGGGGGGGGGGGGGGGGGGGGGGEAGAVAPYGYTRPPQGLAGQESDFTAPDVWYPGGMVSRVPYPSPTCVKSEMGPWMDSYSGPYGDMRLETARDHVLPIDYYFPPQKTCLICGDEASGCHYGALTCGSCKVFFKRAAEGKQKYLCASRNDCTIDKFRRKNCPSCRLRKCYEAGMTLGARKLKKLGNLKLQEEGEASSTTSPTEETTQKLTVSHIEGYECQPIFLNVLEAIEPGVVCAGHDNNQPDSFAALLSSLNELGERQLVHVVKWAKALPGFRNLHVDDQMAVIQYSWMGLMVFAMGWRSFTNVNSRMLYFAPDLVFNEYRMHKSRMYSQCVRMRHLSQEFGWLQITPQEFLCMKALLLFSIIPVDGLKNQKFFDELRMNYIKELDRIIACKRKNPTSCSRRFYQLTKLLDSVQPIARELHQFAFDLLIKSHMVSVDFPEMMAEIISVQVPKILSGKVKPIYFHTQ
Assay: Degradation of AR protein in LNCaP cells (Western blot)
Format: cell-based
Conditions: LNCaP cells, compound 100 nM, 8 hours, Western blot grayscale, GAPDH internal reference; read-out: Degradation rates of the AR protein in LNCaP cells, 100 nM (%)
Measurement Label: inhibition at 0.1 µM (%)

compound="COc1cc(O[C@H]2C(C)(C)[C@H](NC(=O)c3ccc(N4CCC(C)(CN5CCC6(CCc7ccc8c(c7O6)C(=O)N(C6CCC(=O)NC6=O)C8=O)CC5)CC4)cc3)C2(C)C)ccc1C#N (stereo partly shown)" experimental_result=31
compound="N#Cc1ccc(O[C@H]2CC[C@H](NC(=O)c3ccc(C#Cc4ccc(N5CCC6(CC5)COc5c6ccc6c5CN(C5CCC(=O)NC5=O)C6=O)nc4)nn3)CC2)cc1Cl (stereo partly shown)" experimental_result=69
compound="N#Cc1ccc(O[C@H]2CC[C@H](NC(=O)c3ccc(N4CC5(CC(N6CCC7(CCc8ccc9c(c8O7)CN(C7CCC(=O)NC7=O)C9=O)CC6)C5)C4)nn3)CC2)cc1Cl (stereo partly shown)" experimental_result=24
compound="COc1cc(O[C@H]2C(C)(C)[C@H](NC(=O)c3ccc(N4CCC(C#N)(CN5CCC6(CC5)COc5c6ccc6c5C(=O)N(C5CCC(=O)NC5=O)C6=O)CC4)cc3)C2(C)C)ccc1C#N (stereo partly shown)" experimental_result=40

Value source: patent US20260234157A1
